target: CDK2 (human)
reportedProperty: pIC50
Quick note: pIC50 means taking -log10 of the concentration in moles per liter.

Ask: Which pIC50 value belongs to `NC(=O)c1sc(-c2ccsc2)cc1N` ?
Result: 4.21

* * *

target: UniProt:P00533
Sequence (P00533 whole entry, looked up): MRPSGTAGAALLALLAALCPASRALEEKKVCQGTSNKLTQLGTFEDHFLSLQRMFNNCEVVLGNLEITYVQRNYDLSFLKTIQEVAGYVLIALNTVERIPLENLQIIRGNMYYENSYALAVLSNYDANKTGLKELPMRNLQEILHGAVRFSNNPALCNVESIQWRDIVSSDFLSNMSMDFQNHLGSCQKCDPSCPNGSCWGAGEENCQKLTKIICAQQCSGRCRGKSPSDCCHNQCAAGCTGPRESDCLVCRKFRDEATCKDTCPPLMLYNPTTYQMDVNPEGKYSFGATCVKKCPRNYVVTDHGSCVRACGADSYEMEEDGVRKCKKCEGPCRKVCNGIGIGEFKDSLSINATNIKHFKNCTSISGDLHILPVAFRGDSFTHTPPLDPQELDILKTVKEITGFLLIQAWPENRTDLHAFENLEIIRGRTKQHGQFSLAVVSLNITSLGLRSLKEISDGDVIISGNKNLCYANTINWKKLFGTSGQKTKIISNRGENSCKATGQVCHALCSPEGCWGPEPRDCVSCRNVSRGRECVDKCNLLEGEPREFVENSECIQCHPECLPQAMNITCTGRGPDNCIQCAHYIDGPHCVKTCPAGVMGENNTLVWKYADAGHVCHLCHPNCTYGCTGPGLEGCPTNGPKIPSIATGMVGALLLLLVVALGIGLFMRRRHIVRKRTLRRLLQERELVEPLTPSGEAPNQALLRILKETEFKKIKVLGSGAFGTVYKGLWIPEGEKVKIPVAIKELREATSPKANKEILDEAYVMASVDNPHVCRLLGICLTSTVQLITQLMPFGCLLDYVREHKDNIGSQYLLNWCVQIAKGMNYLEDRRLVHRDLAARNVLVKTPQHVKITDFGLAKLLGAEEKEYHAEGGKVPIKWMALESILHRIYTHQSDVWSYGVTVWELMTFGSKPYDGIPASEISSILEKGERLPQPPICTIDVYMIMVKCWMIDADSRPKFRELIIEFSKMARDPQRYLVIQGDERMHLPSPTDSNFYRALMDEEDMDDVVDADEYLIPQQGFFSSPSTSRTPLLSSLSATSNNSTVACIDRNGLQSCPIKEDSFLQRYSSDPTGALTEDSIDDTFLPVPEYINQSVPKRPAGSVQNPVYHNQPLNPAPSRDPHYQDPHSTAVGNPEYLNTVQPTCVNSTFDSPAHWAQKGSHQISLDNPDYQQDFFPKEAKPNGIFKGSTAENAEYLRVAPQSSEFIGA
reportedProperty: IC50

Ask: # value lookup — system UniProt:P00533, readout IC50, item `COC(=O)[C@@]1(Cc2ccc(O)c(CC=C(C)C)c2)OC(=O)C(O)=C1c1ccc(O)cc1`
Result: > 590 µM

* * *

biological target: MAPK14 (human); experiment: Inhibition of TNF-alpha Production in PBMC Cells
Listing of recorded pIC50 by entry.
Note on pIC50: it is the negative log10 of concentration, concentration in mol/L.

CCC(=O)Nc1cc(Nc2ncnc3cc(OC)c(OC)cc23)ccc1F :: 5.49
COc1cc2c(Nc3cc(NC(=O)c4cccc(N(C)C)c4)ccc3C)ncnc2cc1OCCCN1CCOCC1 :: 5.70

Ask: So what does the record say about pIC50 for `COc1cc2ncnc(Nc3ccc(C)c(NC(=O)c4ccccc4)c3)c2cc1OC` ?
Result: 5.44

Ask: # pIC50 lookup, item `COc1cc2c(Nc3cc(NC(=O)c4cccc(N(C)C)c4)ccc3C)ncnc2c(OC)c1OC`
Result: 5.28
